# PROTOCOL_SUMMARY: NCI Yeast Anticancer Drug Screen. Data for the cln2 rad14 strain (AID 165)
# TEST_CONTEXT: S. cerevisiae cln2 rad14 strain, at 50.0 µM
# Experimental: Growth inhibition of yeast strains with defined genetic alterations is measured as a screen for potential anti-cancer activity. Selected strains with alterations in DNA damage repair or cell cycle control were exposed to compounds and growth inhibition was measured relative to vehicle treated controls. The strain used in this assay is cln2 rad14
This is part of a sample that, as a whole, favours compounds with a hit. Of some 79,000 tested, about 15% had one in any assay. Calls of active or inactive are those of the source. Rule as the data show it: active = growth inhibition above about 70%; inactive = the rest.
Outcomes: active, inactive

COMPOUND | CLASS_NAME
CC1(CCl)C(=O)C=Cc2ccccc21 (stereo not drawn) | inactive
Oc1cc(CN2CCOCC2)c(O)c(CN2CCOCC2)c1 | inactive
O=C(O)[C@@H]1[C@@H]2C[C@@H]3[C@H](OC(=O)[C@@H]31)[C@@H]2O | inactive
Cc1cc(=O)oc2cc(NC(=O)C(CCCN=C(N)N)NC(=O)OCc3ccccc3)ccc12 (stereo not drawn) | inactive
O=C=Nc1ccc(Cl)c(Cl)c1 | inactive
O=C1CCCCc2cccc(O)c21 | inactive
CC(C)=C/C(C)=N/NC(N)=O | inactive
NC(=S)N/N=C\C(CC(O)C(O)CO)=N\NC(N)=S (stereo not drawn) | inactive
Cc1cn(C2CC(C)N(CCO)O2)c(=O)[nH]c1=O (stereo not drawn) | inactive
CCCCCCCCCCCCCCCCCC(=O)Nc1nc(N)nc(N)n1 | inactive
CC(C)CCCC(C)C1CCC2C3=CCC4CC(=O)CCC4(C)C3CCC21C (stereo not drawn) | inactive
CC1=C(O[Si](C(C)C)(C(C)C)C(C)C)C2CC1[C@@H]1C(=O)N(c3ccccc3)C(=O)[C@H]21 (stereo partly drawn) | inactive
COc1cc(C2c3cc4c(cc3OC(O)C2C)OCO4)cc(OC)c1OC (stereo not drawn) | inactive
CC(C)(C)C(=O)OCn1cc2c(=O)[nH]cnc2n1 | inactive
O=C(c1ccccc1)N(C(=O)c1ccccc1)c1cccc[n+]1[O-] | inactive
O=C1CC(N2C(=O)C3C4CCC(O4)C3C2=O)C(=O)N1 (stereo not drawn) | inactive
CC(NC(=O)c1cnc2ccccc2n1)C(=O)O (stereo not drawn) | inactive
Cc1ccc(CN(C)C)c(C(O)c2ccccc2)c1 (stereo not drawn) | inactive
COC1(OC)C2(Cl)C(Cl)=C(Cl)C1(Cl)C1C=CC=CC12 (stereo not drawn) | inactive
Cc1cc[n+](CCc2c[nH]c3ccccc23)cc1C | inactive
CC(CC#N)=C(c1ccccc1)c1ccccc1 | inactive
CCCCOC(=O)/C=C/c1ccc(OC(C)C)cc1 | inactive
O=C(NC1CCCCC1)Oc1ccc[nH]c1=O | inactive
Cc1ccc(S(=O)(=O)C23N=NC(C)(C)C2C2CCC3C2)cc1 (stereo not drawn) | inactive
COc1cc2c(cc1OC)CN1CCc3ccccc3CC1C2 (stereo not drawn) | inactive
Cc1cccc(NC(=S)NCCc2ccccn2)c1 | inactive
C/C(=N/NC(N)=O)c1c(C)c(Cl)cc(Cl)c1OCCCC(C)C | inactive
O=C(O)CSc1ccccc1 | inactive
CC(C)=C1CCC(CN2CCCC2)C1=O (stereo not drawn) | inactive
N#Cc1n[nH]n(C2CCCCC2)c1=O | inactive
CC#Cc1c(O)c2c(c(O)c1C#CC)C(=O)c1ccccc1C2=O | inactive
O=[N+]([O-])c1cc(Br)cc2c1nc(NCCO)c1ccccc12 | active
COc1ccc(CCNc2ncc([N+](=O)[O-])cc2N)cc1OC | inactive
C=CCNC(=O)OCCCl | inactive
C=C1c2cc3c(cc2CC12Cc1cc4c(cc1C2=O)CCC4)CCC3 (stereo not drawn) | inactive
c1ccc(-c2nnn(-n3nnc(-c4ccccc4)n3)n2)cc1 | inactive
O=c1cc[nH]c2c(Cl)cccc12 | inactive
CCCCOC(=O)C(C)C(=O)CCC(C)CC (stereo not drawn) | inactive
CC1(C)C=C(C(Cl)c2ccccc2)C(=O)c2ccccc21 (stereo not drawn) | inactive
O=c1c[n+]([O-])c2ccccc2n1O | inactive
CC(=O)OCCn1c(Cc2ccc(C)cc2)nn(C(C)=O)c1=O | inactive
C=C1CN2CCc3c([nH]c4ccccc34)C2CC1CC(=O)N(C)C (stereo not drawn) | inactive
N#CCCN(CCC#N)C(=O)Nc1cccc2ccccc12 | inactive
O=C1C2C3C=CC(O3)C2C(=O)N1CCN1CCCCC1 (stereo not drawn) | inactive
COc1c(O)c2c(=O)cc3c4c5c(cc(=O)c6c(O)c(OC)c(CC(C)O)c(c(c1CC(C)O)c24)c65)OCO3 (stereo not drawn) | inactive
CC(=O)O[C@H]1CC[C@@]2(C)[C@@H](CC[C@@H]3[C@@H]2CC(=O)[C@]2(C)[C@@H]4[C@H](C[C@@H]32)O[C@]2(CC[C@@H](C)CO2)[C@H]4C)C1 | inactive
CCOC(=O)C1C(C)=CC(=O)CC1CC (stereo not drawn) | inactive
Cn1nc(-c2ccccc2)c(C(=O)/C=C/c2ccc(F)cc2)c(N2CCOCC2)c1=O | inactive
